Would you mind telling me the reported Phage binding ELISA signal (Anti-PSMA Fab, with competitor) of each entry?
targetOfAssay: T1, PSMA Fab
T1 construct: also called Anti-PSMA Fab; 006 PSMA Fab
protocolSummary: clonal phage ELISA on captured PSMA Fab; wells pre-incubated with PSMA antigen as competitor
Where no end group is shown, it is not given here.
Answers are plain numbers.

[
  {
    "binder": "LERACVPSWMCTGF (cysteine pairing not given here; also: fused to pIII of display bacteriophage, linker and sequence not given here, Clonal phage of the Peptide-180 library; not shown: pIII filament protein of the display bacteriophage) [Phage-2857]",
    "numericReadout": 0.0938
  },
  {
    "binder": "TGAYCVPQWMCSGF (cysteine pairing not given here; also: fused to phage pIII, linker not given here, Clonal phage of the Peptide-180 library; not shown: pIII filament protein of the display bacteriophage) [Phage-2862]",
    "numericReadout": 0.112
  },
  {
    "binder": "WEMKCIPEWMCRGF (cysteine pairing not given here; also: fused to pIII of display bacteriophage, linker and sequence not given here, Clonal phage of the Peptide-180 library; not shown: pIII filament protein of the display bacteriophage) [Phage-2855]",
    "numericReadout": 0.139
  },
  {
    "binder": "WDRLCIPAWMCSGF (cysteine pairing not given here; also: fused to pIII of display bacteriophage, linker and sequence not given here, Clonal phage of the Peptide-180 library; not shown: pIII filament protein of the display bacteriophage) [Phage-2861]",
    "numericReadout": 0.197
  },
  {
    "binder": "EWILCKPAWMCDGL (cysteine pairing not given here; also: fused to pIII of display bacteriophage, linker and sequence not given here, Clonal phage of the Peptide-180 library; not shown: pIII filament protein of the display bacteriophage) [Phage-2860]",
    "numericReadout": 0.0639
  }
]

Now consider the entry below.
I am curious: what Phage binding ELISA signal (Anti-PSMA Fab, with competitor) value has been reported for DMRLCVPEWMCLGL (cysteine pairing not given here; also: displayed on phage as fusion to pIII, linker and sequence not given here, Clonal phage of the Peptide-180 library; not shown: pIII filament protein of the display bacteriophage) [Phage-2851] ?
0.0789
